Parameter Ki, tested on UniProtKB P34972, listed per item.
Form entry: value (nM) — number only.

Completed entries (count: 3):
- COMPOUND: "C=C(C)[C@H]1CCC(C)=C[C@@H]1c1c(O)cc(CCC)cc1O [(+)-CBDV, (+)-Cannabidivarin]"
  ASSAY_RESULT: 33.1
- COMPOUND: "C=C(C)[C@H]1CCC(C)=C[C@@H]1c1c(O)cc(CCCCC)c(C(=O)OCC(O)CCC)c1O (single isomer, unassigned; (+)) [(+)-CBD-HPE, (+)-Cannabidiol hydroxypentylester]"
  ASSAY_RESULT: 0.8
- COMPOUND: "C=C(C)[C@H]1CCC(C)=C[C@@H]1c1c(O)cc(CCCCC)c(C(=O)OC)c1O [(+)-CBD-ME, (+)-Cannabidiol methylester]"
  ASSAY_RESULT: 28

Here is the next item to consider.
INPUT: Using the record for C=C(C)[C@H]1CCC(C)=C[C@@H]1c1c(O)cc(CCCCC)c(C(=O)OCCO)c1O [(+)-CBD-GE, (+)-Cannabidiol glycolester] , report its Ki.
OUTPUT: 12.9

----------
Items are presented alongside their recorded doses inhibiting IL-1-stimulated IL-8 release.
Tested on: IL-1-treated human dermal fibroblasts
Experiment: IL-1-induced inflammatory parameters in human dermal fibroblasts
Assay type: cell-based
Details: IL-1beta 10 U/ml, 24 h
Source text: Cell cultures: Human primary monocytes were extracted from the whole blood of medically healthy volunteers, who provided written informed consent at the local blood bank (University Hospital of Freiburg, Germany), following a standardized protocol (gradient preparation, Lymphocytes separation medium, PAN Biotech, P04-60125, Aidenbach, Germany) using completely endotoxin-free cultivation. […] Enriched monocytes were then ready to be used for the experiments. […]

Study these solved cases before continuing.
- COMPOUND: "C=C(C)[C@H]1CCC(C)=C[C@@H]1c1c(O)cc(CCCCC)cc1O [(+)-CBD, (+)-Cannabidiol]"
  ASSAY_RESULT: "≥ 0.1 µM"
- COMPOUND: "C=C(C)[C@H]1CCC(C)=C[C@@H]1c1c(O)cc(CCCCC)c(C(=O)OCC(O)CCC)c1O (single isomer, unassigned; (+)) [(+)-CBD-HPE, (+)-Cannabidiol hydroxypentylester]"
  ASSAY_RESULT: "≥ 10 µM"
- COMPOUND: "C=C(C)[C@H]1CCC(C)=C[C@@H]1c1c(O)cc(CCC)cc1O [(+)-CBDV, (+)-Cannabidivarin]"
  ASSAY_RESULT: "≥ 5 µM"

INPUT: Can you look up the measured doses inhibiting IL-1-stimulated IL-8 release of C=C(C)[C@H]1CCC(C)=C[C@@H]1c1c(O)cc(CCCCC)c(C(=O)OCCO)c1O [(+)-CBD-GE, (+)-Cannabidiol glycolester] for me?
OUTPUT: ≥ 5 µM

----------
Test system: IL-1-treated human dermal fibroblasts
Test: IL-1-induced inflammatory parameters in human dermal fibroblasts
Type: cell-based
Conditions: IL-1beta 10 U/ml, 24 h; maximal effect, doses up to 25 μM

- MOLECULE: "C=C(C)[C@H]1CCC(C)=C[C@@H]1c1c(O)cc(CCCCC)c(C(=O)OCC(O)CCC)c1O (single isomer, unassigned; (+)) [(+)-CBD-HPE, (+)-Cannabidiol hydroxypentylester]"
  inhibition of IL-1-induced PGE2: "50%"
- MOLECULE: "C=C(C)[C@H]1CCC(C)=C[C@@H]1c1c(O)cc(CCC)cc1O [(+)-CBDV, (+)-Cannabidivarin]"
  inhibition of IL-1-induced PGE2: "more than 80%"
- MOLECULE: "C=C(C)[C@H]1CCC(C)=C[C@@H]1c1c(O)cc(CCCCC)cc1O [(+)-CBD, (+)-Cannabidiol]"
  inhibition of IL-1-induced PGE2: "more than 80%"

----------
Reported doses inhibiting IL-1-stimulated IL-6 release by item:
Test system: IL-1-treated human dermal fibroblasts
Experiment: IL-1-induced inflammatory parameters in human dermal fibroblasts
Assay type: cell-based
Conditions: IL-1beta 10 U/ml, 24 h

In the examples that follow, each entry is paired with its recorded doses inhibiting IL-1-stimulated IL-6 release.
- COMPOUND: "C=C(C)[C@H]1CCC(C)=C[C@@H]1c1c(O)cc(CCC)cc1O [(+)-CBDV, (+)-Cannabidivarin]"
  ASSAY_RESULT: "≥ 5 µM"
- COMPOUND: "C=C(C)[C@H]1CCC(C)=C[C@@H]1c1c(O)cc(CCCCC)c(C(=O)OCC(O)CCC)c1O (single isomer, unassigned; (+)) [(+)-CBD-HPE, (+)-Cannabidiol hydroxypentylester]"
  ASSAY_RESULT: "≥ 10 µM"

INPUT: Query (compound): C=C(C)[C@H]1CCC(C)=C[C@@H]1c1c(O)cc(CCCCC)c(C(=O)OCCO)c1O [(+)-CBD-GE, (+)-Cannabidiol glycolester] ; field requested: doses inhibiting IL-1-stimulated IL-6 release
OUTPUT: ≥ 5 µM

INPUT: // next record C=C(C)[C@H]1CCC(C)=C[C@@H]1c1c(O)cc(CCCCC)cc1O [(+)-CBD, (+)-Cannabidiol]
OUTPUT: ≥ 0.1 µM

This collection of values is drawn from patent US11485700B2.
